# maps each entry to its inhibition
- target-desc: Tyrosine-protein kinase Yes (Homo sapiens);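 further: mean inhibition of YES, from the GSK PKIS dataset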
- stated-conditions: at 0.1 µM
readout: inhibition (%)

smiles-data | readout | obs-value
Cn1c(-c2nonc2N)nc2cnccc21 | inhibition | 1.37
COc1cc(N2CCN(C(C)C)CC2)ccc1Nc1nc(Nc2cccc(F)c2C(=O)O)c2cc[nH]c2n1 | inhibition | 1.69
Fc1ccc(Nc2nccc(-c3c(-c4ccc(C(F)(F)F)cc4)nn4ncccc34)n2)cc1F | inhibition | -0.6
COc1cc(Nc2ncc(-c3ccccc3)o2)cc(OC)c1 | inhibition | 5.8
CN1CCC(n2cnc(-c3ccc(F)cc3)c2-c2ccnc(NCCO)n2)CC1 | inhibition | 2.55
NS(=O)(=O)c1cccc(N/C=C2\C(=O)Nc3ccccc32)c1 | inhibition | 4.04
O=C(O[C@H]1CN[C@H](C#Cc2cc3ncnc(Nc4ccc5c(ccn5Cc5cc(F)ccc5F)c4)c3s2)C1)N1CCOCC1 | inhibition | 0.85
N#Cc1cccc(Nc2ncc(-c3ccccc3)o2)c1 | inhibition | 2.87
O=C1Nc2ccccc2/C1=C1\CCc2cc(O)ccc21 | inhibition | 3.94
CS(=O)(=O)CCNCc1ccc(-c2ccc3ncnc(Nc4ccc(OCc5cccc(C(F)(F)F)c5)cc4)c3c2)o1 | inhibition | 0.5

---

# maps each entry to its inhibition
- target-desc: Ribosomal protein S6 kinase alpha-6 (Homo sapiens) (UniProt Q9UK32);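 further: each value is a mean inhibition of RSK4 from a GSK PKIS panel screen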
- Sequence (Q9UK32 whole entry): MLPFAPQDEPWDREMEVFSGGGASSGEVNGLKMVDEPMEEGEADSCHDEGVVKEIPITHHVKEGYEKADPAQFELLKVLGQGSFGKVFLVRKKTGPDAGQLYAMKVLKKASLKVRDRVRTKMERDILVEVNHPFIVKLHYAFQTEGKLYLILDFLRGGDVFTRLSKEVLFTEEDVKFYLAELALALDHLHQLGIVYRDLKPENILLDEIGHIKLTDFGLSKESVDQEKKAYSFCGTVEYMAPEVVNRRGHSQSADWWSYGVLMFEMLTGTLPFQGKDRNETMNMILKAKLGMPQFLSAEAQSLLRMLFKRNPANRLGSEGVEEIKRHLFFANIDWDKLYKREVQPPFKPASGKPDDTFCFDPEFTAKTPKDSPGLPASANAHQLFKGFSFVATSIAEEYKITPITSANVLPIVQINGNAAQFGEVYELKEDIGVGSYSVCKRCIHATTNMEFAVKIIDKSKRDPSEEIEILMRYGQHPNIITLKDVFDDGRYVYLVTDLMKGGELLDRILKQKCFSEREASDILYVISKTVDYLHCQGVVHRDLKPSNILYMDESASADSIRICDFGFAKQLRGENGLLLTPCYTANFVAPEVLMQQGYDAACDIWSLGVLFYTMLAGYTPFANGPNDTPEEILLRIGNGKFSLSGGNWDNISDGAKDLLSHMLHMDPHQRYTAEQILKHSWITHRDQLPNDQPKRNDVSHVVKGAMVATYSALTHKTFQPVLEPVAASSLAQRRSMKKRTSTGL
- stated-conditions: at 1 µM
readout: inhibition (%)

compound | readout | obs-value
Fc1cccc(COc2ccc(Nc3ncncc3C#Cc3ccccc3)cc2Cl)c1 | inhibition | 1.91
Cc1c2ccc(N(C)c3ccnc(Nc4cccc(S(N)(=O)=O)c4)n3)cc2nn1C | inhibition | 4.77
CC1=C(C(=O)Nc2ccc3[nH]nc(C)c3c2)C(c2ccc(C(F)(F)F)cc2)CC(=O)N1 (stereo unspecified) | inhibition | 18.9
CS(=O)(=O)CCNCc1ccc(-c2ccc3ncnc(Nc4ccc(OCc5cccc(C(F)(F)F)c5)cc4)c3c2)o1 | inhibition | 1.68
COC(=O)Nc1nc2ccc(Oc3ccc(NC(=O)Nc4cc(C(F)(F)F)ccc4F)cc3)cc2s1 | inhibition | 1.65
CC1=C(C(=O)Nc2ccc3[nH]ncc3c2)C(c2ccc(F)cc2)N=C(c2ccc(C(F)(F)F)nc2)N1 (stereo unspecified) | inhibition | 0.46
COc1cc(Nc2ncc(-c3ccccc3)o2)cc(OC)c1 | inhibition | 2.83
CS(=O)(=O)Nc1ccc(-c2ccc3c(NC(=O)C4CC4)n[nH]c3c2)cc1 | inhibition | 3.46
O=C(O[C@H]1CN[C@H](C#Cc2cc3ncnc(Nc4ccc(OCc5cccc(F)c5)c(Cl)c4)c3s2)C1)N1CCOCC1 | inhibition | 1.82
CNC(=O)c1sc(-n2cnc3cc(OC)c(OC)cc32)cc1OCc1ccccc1C(F)(F)F | inhibition | 1.47
CCN1CCC(C(=O)Nc2n[nH]c3nnc(-c4cccc(F)c4F)cc23)CC1 | inhibition | 0.55
COc1ccc(Nc2ncc(-c3ccccc3)o2)cc1OC | inhibition | 3.67
NC(=O)c1ccc2c(-c3ccnc(NCCCO)n3)c(-c3ccc(F)cc3)nn2c1 | inhibition | 2.84
COc1cc(N2CCN(C(C)C)CC2)ccc1Nc1nc(Nc2cccc(F)c2C(=O)O)c2cc[nH]c2n1 | inhibition | 13
CS(=O)(=O)Nc1ccc(-c2cc(-c3ccccc3)cc(C(N)=O)c2N)cc1 | inhibition | 0.06
CS(=O)(=O)CCNCc1ccoc1-c1ccc2ncnc(Nc3ccc(OCc4ccccc4)cc3)c2c1 | inhibition | -0.72

These measurements were taken from ChEMBL document CHEMBL1961873.
